# targetOfAssay: biotinylated human IL-17 (binding to IL17R/Fc) (Homo sapiens, UniProt Q16552)
# Construct: 177-IR (IL17R/Fc)
# testDescription: IL-17 competition ELISA II (captured IL17R/Fc, biotinylated IL-17)
assayReadout: IC50

Reference set, count: 2
>  <compound>
CC(=O)N[C@H](C(=O)Nc1ccc(C[C@H]2NC(=O)CC3(CCCC3)CC(=O)OCCCCCNC(=O)CNC2=O)cc1)C1CCCCC1 [Compound 673]

>  <assayReadout>
IC50

>  <measValue>
< 0.1 µM

$$$$
>  <compound>
O=C1CC2(CCCC2)CC(=O)N[C@H](Cc2ccc(NC(=O)[C@@H](NC(=O)Cc3ccc(F)cc3)C3CCCCC3)cc2)C(=O)NCCCCN1 [Compound 410]

>  <assayReadout>
IC50

>  <measValue>
0.1 to 1 µM

$$$$

Okay, here is my list. What is IC50 for each of these?
1. O=C1CNC(=O)[C@@H](Cc2ccc(NC(=O)[C@@H](NC(=O)c3cccnc3)C3CCCCC3)cc2)NC(=O)CC2(CCCC2)CC(=O)N[C@H](C(=O)O)CCCCN1 [Compound 384]
2. O=C1CC2(CCCC2)CC(=O)N[C@H](Cc2ccc(NC(=O)[C@H](Cc3ccccc3Cl)NC(=O)[C@H](O)c3ccccc3)cc2)C(=O)NCCOCCOCCN1 [Compound 545]
3. CCOC(=O)N[C@@H](Cc1ccccc1Cl)C(=O)Nc1ccc(C[C@H]2NC(=O)CC3(CCCC3)CC(=O)NCCCCCNC(=O)[C@@H](C)NC2=O)cc1 [Compound 577]

Result:
["< 0.1 µM", "< 0.1 µM", "< 0.1 µM"]

====

# targetOfAssay: recombinant human IL17a (binding to its receptor IL17R) (Homo sapiens, UniProt Q16552)
# Construct: purchased R&D Systems 317-ILB (IL17a); 177-IR (IL17R/Fc)
# Sequence (Q16552 20-155 limits assumed): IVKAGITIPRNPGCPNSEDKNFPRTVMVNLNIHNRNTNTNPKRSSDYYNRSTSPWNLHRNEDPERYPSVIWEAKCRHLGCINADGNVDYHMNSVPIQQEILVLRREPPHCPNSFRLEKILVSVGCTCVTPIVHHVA
# testDescription: IL-17 competition ELISA I (IL17a coated, IL17R/Fc binding)
assayReadout: IC50

>  <compound>
O=C1CNC(=O)[C@@H](Cc2ccc(NC(=O)[C@H](Cc3ccsc3)NC(=O)Cc3ccccc3)cc2)NC(=O)CC2(CCCC2)CC(=O)NCCCCCN1

>  <IC50>
< 0.1 µM

$$$$
>  <compound>
CN1CCCCCCCCN(C)C(=O)[C@@H](Cc2ccc(N(C)C(=O)[C@H](Cc3ccccc3Cl)N(C)C(=O)c3ccccc3)cc2)N(C)C(=O)CC2(CCCC2)CC1=O

>  <IC50>
1 to 10 µM

$$$$
>  <compound>
O=C1CNC(=O)[C@@H](Cc2ccc(NC(=O)[C@H](Cc3ccccc3Cl)NC(=O)c3ccc(O)c(F)c3)cc2)NC(=O)CC2(CCCC2)CC(=O)NCCCCCN1

>  <IC50>
0.1 to 1 µM

$$$$

I need IC50 for every entry listed below, if you could help.
1. O=C1CC2(CCCC2)CC(=O)N[C@H](Cc2ccc(NC(=O)[C@H](Cc3ccccc3Cl)NC(=O)Cc3ccccc3)cc2)C(=O)N[C@@H](CO)C(=O)NCCCCCN1
2. CN1CCCCCNC(=O)CC2(CCCC2)CC(=O)N[C@H](Cc2ccc(NC(=O)[C@H](Cc3ccccc3Cl)NC(=O)Cc3ccc(O)cc3)cc2)C(=O)NCC1=O
3. O=C1CNC(=O)[C@@H](Cc2ccc(NC(=O)[C@H](Cc3ccccc3Cl)NC(=O)c3ccccc3O)cc2)NC(=O)CC2(CCCC2)CC(=O)NCCCCCN1

Result:
0.1 to 1 µM
< 0.1 µM
0.1 to 1 µM

# batch size: 2; output IC50 per entry
1. O=C1CNC(=O)[C@@H](Cc2ccc(NC(=O)[C@H](Cc3ccccc3Cl)NC(=O)CN3CCOCC3)cc2)NC(=O)CC2(CCCC2)CC(=O)NCCCCCN1
2. O=C1CNC(=O)C(Cc2ccc(NC(=O)C(Cc3cccc(Cl)c3)NC(=O)Cc3ccccc3)cc2)NC(=O)CC2(CCCC2)CC(=O)NCCCCCN1 (stereo not shown)

Result:
["0.1 to 1 µM", "< 0.1 µM"]

Please give IC50 for each item listed below.
1. O=C1CNC(=O)[C@@H](Cc2ccc(NC(=O)[C@H](Cc3ccccc3Cl)NC(=O)Cc3ccc(F)c(F)c3)cc2)NC(=O)CC2(CCCC2)CC(=O)NCCCCCN1
2. O=C1CNC(=O)[C@@H](Cc2ccc(NC(=O)[C@H](Cc3ccccc3Cl)NC(=O)c3cccc(O)c3)cc2)NC(=O)CC2(CCCC2)CC(=O)NCCCCCN1
3. CC1(C)CC(=O)NCCCCCNC(=O)CNC(=O)[C@@H](Cc2ccc(NC(=O)[C@@H](NC(=O)c3cccnc3)C3CCCCC3)cc2)NC(=O)C1
4. O=C1CNC(=O)[C@@H](Cc2ccc(NC(=O)[C@H](Cc3ccccc3Br)NC(=O)Cc3ccc(O)cc3)cc2)NC(=O)CC2(CCCC2)CC(=O)NCCCCCN1
5. O=C1CNC(=O)[C@@H](Cc2ccc(NC(=O)[C@H](Cc3ccccc3Cl)NC(=O)Cc3cccc(O)c3)cc2)NC(=O)CC2(CCCC2)CC(=O)NCCCCCN1
6. O=C1CNC(=O)[C@@H](Cc2ccc(NC(=O)[C@H](Cc3ccccc3Cl)NC(=O)CN3CCCC3)cc2)NC(=O)CC2(CCCC2)CC(=O)NCCCCCN1
7. COC(=O)[C@@H]1CCCCNC(=O)CCCNC(=O)[C@@H](Cc2ccc(NC(=O)[C@H](Cc3ccccc3F)NC(=O)Cc3ccccc3)cc2)NC(=O)CC2(CCCC2)CC(=O)N1
8. O=C1CC2(CCCC2)CC(=O)N[C@H](Cc2ccc(NC(=O)[C@H](Cc3ccccc3Cl)NC(=O)Cc3ccccc3)cc2)C(=O)NCCCCCCCCN1

Result:
1. < 0.1 µM
2. < 0.1 µM
3. 1 to 10 µM
4. < 0.1 µM
5. < 0.1 µM
6. 1 to 10 µM
7. 0.1 to 1 µM
8. 0.1 to 1 µM

These measurements were taken from patent US9284283B2.
